Source listed as patent US20080249165A1.

Target: IP-3 receptor (Rattus norvegicus, UniProt P29994)
Construct: from tissue; host or cells: rat cerebellum (microsomal membrane preparation)
Sequence (P29994 whole entry): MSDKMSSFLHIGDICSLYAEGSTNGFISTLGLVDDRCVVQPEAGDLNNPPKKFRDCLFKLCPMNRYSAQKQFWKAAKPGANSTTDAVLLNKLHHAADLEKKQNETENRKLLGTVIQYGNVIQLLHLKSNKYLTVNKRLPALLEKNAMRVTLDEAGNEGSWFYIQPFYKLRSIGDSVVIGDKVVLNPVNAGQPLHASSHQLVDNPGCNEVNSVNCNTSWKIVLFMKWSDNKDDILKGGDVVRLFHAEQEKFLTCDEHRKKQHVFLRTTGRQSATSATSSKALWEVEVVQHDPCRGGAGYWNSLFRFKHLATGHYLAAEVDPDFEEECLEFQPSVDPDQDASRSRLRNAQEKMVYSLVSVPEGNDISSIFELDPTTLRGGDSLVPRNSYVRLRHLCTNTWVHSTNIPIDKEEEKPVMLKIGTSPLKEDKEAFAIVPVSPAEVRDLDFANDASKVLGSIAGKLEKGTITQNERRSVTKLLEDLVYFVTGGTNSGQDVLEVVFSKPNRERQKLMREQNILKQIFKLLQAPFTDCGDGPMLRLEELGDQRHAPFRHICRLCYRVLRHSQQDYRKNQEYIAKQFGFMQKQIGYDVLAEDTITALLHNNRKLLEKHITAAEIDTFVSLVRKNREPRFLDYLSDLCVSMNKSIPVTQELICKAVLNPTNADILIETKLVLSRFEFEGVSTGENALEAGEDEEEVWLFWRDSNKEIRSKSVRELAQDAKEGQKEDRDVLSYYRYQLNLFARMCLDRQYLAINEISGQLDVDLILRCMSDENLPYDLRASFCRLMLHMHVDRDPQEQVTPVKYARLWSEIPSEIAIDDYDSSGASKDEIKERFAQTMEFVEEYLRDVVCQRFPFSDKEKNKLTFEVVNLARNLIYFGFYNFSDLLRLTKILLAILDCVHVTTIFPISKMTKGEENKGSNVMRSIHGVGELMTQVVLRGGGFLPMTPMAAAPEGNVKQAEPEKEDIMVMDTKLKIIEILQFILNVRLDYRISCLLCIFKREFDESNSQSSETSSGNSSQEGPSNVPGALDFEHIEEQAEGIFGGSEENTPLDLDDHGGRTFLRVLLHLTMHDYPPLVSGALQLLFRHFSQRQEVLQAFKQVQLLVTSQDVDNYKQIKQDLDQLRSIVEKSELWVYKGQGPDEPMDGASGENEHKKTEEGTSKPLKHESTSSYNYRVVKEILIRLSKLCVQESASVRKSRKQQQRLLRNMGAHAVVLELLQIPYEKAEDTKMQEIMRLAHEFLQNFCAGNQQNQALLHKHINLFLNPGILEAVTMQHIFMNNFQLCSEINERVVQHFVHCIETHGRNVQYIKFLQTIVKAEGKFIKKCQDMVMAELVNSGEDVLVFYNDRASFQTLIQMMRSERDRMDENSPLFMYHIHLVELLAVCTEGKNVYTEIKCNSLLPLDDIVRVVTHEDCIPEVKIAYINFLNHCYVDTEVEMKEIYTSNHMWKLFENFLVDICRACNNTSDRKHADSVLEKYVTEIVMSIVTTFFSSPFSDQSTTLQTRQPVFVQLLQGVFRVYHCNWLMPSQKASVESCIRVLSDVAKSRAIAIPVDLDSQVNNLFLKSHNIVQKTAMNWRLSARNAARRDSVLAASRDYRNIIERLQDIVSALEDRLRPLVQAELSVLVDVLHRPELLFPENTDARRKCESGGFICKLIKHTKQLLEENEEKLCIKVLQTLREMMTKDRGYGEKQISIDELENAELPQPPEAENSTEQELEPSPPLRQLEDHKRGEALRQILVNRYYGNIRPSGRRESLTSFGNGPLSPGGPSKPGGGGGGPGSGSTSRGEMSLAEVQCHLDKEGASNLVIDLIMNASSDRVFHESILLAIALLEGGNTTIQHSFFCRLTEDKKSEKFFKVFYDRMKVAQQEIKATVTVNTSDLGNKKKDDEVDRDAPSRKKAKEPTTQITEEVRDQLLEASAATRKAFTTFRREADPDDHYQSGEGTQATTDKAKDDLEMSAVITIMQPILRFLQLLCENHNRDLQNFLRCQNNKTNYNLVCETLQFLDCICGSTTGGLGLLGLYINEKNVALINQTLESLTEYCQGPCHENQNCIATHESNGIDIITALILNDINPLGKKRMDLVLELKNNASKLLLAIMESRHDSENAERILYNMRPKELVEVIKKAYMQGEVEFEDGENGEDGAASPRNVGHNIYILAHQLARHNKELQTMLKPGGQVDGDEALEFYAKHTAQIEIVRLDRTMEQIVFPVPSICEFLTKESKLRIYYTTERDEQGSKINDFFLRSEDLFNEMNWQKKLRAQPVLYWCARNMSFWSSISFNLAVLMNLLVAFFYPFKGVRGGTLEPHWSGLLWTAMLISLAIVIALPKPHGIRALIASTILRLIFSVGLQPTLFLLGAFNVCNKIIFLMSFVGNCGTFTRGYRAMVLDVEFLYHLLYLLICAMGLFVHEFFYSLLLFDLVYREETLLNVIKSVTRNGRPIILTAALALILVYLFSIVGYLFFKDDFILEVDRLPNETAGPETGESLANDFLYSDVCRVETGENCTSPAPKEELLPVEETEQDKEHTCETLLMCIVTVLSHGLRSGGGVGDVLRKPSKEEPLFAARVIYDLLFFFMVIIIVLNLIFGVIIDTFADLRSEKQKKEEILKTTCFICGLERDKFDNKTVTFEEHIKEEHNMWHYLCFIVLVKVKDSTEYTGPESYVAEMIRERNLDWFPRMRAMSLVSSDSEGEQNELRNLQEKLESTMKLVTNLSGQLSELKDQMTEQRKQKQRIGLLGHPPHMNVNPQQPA
Assay: IP-3 receptor antagonistic effect: inhibition of IP3 binding in rat cerebellum membrane preparations (Model 5)
Conditions: read-out: Average IC50
Where a name gives a salt, the structure may show the parent alone.
Note to self: IC50 under 500 nM means YES, ties and anything higher get NO.

{"molecule": "O=S(=O)(O)OC[C@H]1O[C@@H](O[C@H]2[C@H](OS(=O)(=O)O)[C@@H](COS(=O)(=O)O)O[C@@H]2COS(=O)(=O)O)[C@H](OS(=O)(=O)O)[C@@H](OS(=O)(=O)O)[C@@H]1O[C@H]1O[C@H](COS(=O)(=O)O)[C@@H](OS(=O)(=O)O)[C@H](OS(=O)(=O)O)[C@H]1OS(=O)(=O)O [Example 6, potassium salt]", "classification": "YES"}
{"molecule": "O=S(=O)(O)OCC1OC(COS(=O)(=O)O)C(OS(=O)(=O)O)C1OC1OC(COS(=O)(=O)O)C(OS(=O)(=O)O)C(OS(=O)(=O)O)C1OS(=O)(=O)O (centres unmarked) [Example 2, potassium salt]", "classification": "NO"}
{"molecule": "O=S(=O)(O)OCC1OC(OCC2OC(OCC3OC(COC4OC(COC5OC(COS(=O)(=O)O)C(OS(=O)(=O)O)C(OS(=O)(=O)O)C5OS(=O)(=O)O)C(OS(=O)(=O)O)C(OS(=O)(=O)O)C4OS(=O)(=O)O)C(OS(=O)(=O)O)C3OS(=O)(=O)O)C(OS(=O)(=O)O)C(OS(=O)(=O)O)C2OS(=O)(=O)O)C(OS(=O)(=O)O)C(OS(=O)(=O)O)C1OS(=O)(=O)O (centres unmarked) [Example 9, potassium salt]", "classification": "YES"}
{"molecule": "O=S(=O)(O)OC[C@H]1O[C@H](COS(=O)(=O)O)[C@@H](OS(=O)(=O)O)[C@@H]1O[C@@H]1OC[C@H](OS(=O)(=O)O)[C@H](OS(=O)(=O)O)[C@H]1OS(=O)(=O)O [Example 4, potassium salt]", "classification": "NO"}
{"molecule": "O=S(=O)(O)OC[C@H]1O[C@@H](OC[C@H]2O[C@H](CO[C@@H]3O[C@H](COS(=O)(=O)O)[C@@H](OS(=O)(=O)O)[C@H](OS(=O)(=O)O)[C@H]3OS(=O)(=O)O)[C@@H](OS(=O)(=O)O)[C@@H]2OS(=O)(=O)O)[C@H](OS(=O)(=O)O)[C@@H](OS(=O)(=O)O)[C@@H]1OS(=O)(=O)O [Example 8, potassium salt]", "classification": "NO"}
